# assayOverview: Oral bioavailability in monkey (dose 5 mg/kg)
# Type: ADME, organism-based
# cond: cercopithecidae, in vivo

- smilesCode: "COc1cc([C@@H]2CN=C(c3ccc4c(ccn4C)c3)O2)cc(OC)c1OC"
  bioavailability (%): 16.2
- smilesCode: "COc1cc([C@H]2CN=C(c3ccc4c(ccn4C)c3)O2)cc(OC)c1OC"
  bioavailability (%): 18.6

* * *

# assayOverview: Solubility of compound in pH 7.4 phosphate buffer
# Format: physicochemical

- smilesCode: "COc1cc([C@H]2CN=C(c3ccc4c(ccn4C)c3)O2)cc(OC)c1OC"
  quantityUnit: "µg/mL"
  solubility: 0.7

* * *

# assayOverview: pKa of the compound
# Type: physicochemical
property: pKa

- smilesCode: "COc1cc([C@H]2CN=C(c3ccc4c(ccn4C)c3)O2)cc(OC)c1OC"
  numericValue: 5

* * *

# assayOverview: Half life period in mouse after 10 mg/kg dose
# Type: ADME, organism-based
# Design: dose 10 mg/kg
# cond: in vivo

- smilesCode: "COc1cc([C@H]2CN=C(c3ccc4c(ccn4C)c3)O2)cc(OC)c1OC"
  half-life [h]: 1.1

* * *

# assayOverview: Area under curve value in rat at a dose of 5 mg/kg
# Type: ADME, organism-based
# Design: dose 5 mg/kg
# cond: in vivo
This section presents molecules with their documented AUC values.
property: AUC

- smilesCode: "COc1cc([C@H]2CN=C(c3ccc4c(ccn4C)c3)O2)cc(OC)c1OC"
  result: "7180 ng·h/mL"
- smilesCode: "COc1cc([C@@H]2CN=C(c3ccc4c(ccn4C)c3)O2)cc(OC)c1OC"
  result: "3040 ng·h/mL"

* * *

# assayOverview: Area under curve value in dog at a dose of 5 mg/kg
# Type: ADME, organism-based, Canis lupus familiaris
# Set-up: dose 5 mg/kg
# cond: in vivo

- smilesCode: "COc1cc([C@@H]2CN=C(c3ccc4c(ccn4C)c3)O2)cc(OC)c1OC"
  AUC: "330 ng·h/mL"
- smilesCode: "COc1cc([C@H]2CN=C(c3ccc4c(ccn4C)c3)O2)cc(OC)c1OC"
  AUC: "160 ng·h/mL"

* * *

# Species on record: Bos taurus
# assayOverview: Inhibition of bovine brain microtubule polymerization
# Format: functional

- molecule: "COc1ccc(/C=C\\c2cc(OC)c(OC)c(OC)c2)cc1O [COMBRETASTATIN A4]"
  IC50 (nM): 1600

* * *

# System: NCI-H460
# assayOverview: Antiproliferative activity against the human non small cell lung carcinoma cell line NCI-H460
# Format: functional, cell-based
pIC50: −log10 of the molar value.

- compound: "COc1cc(C2CN=C(c3ccc4c(c3)cc(C)n4C)O2)cc(OC)c1OC (stereo not drawn)"
  qualifier: "="
  pIC50: 6.68
- compound: "COc1cc(C2CN=C(c3cccc4c3ccn4C)O2)cc(OC)c1OC (stereo not drawn)"
  qualifier: "="
  pIC50: 7.06
- compound: "COc1cc(C2CN=C(c3cccc4ccn(C)c34)O2)cc(OC)c1OC (stereo not drawn)"
  qualifier: "="
  pIC50: 3.82
- compound: "COc1cc(C2CN=C(c3ccnc4ccccc34)O2)cc(OC)c1OC (stereo not drawn)"
  qualifier: "="
  pIC50: 4.43
- compound: "COc1cc(C2CN=C(c3ccc4ccn(C)c4c3)O2)cc(OC)c1OC (stereo not drawn)"
  qualifier: "="
  pIC50: 6.38
- compound: "COc1cc(C2CN=C(c3ccc4ncccc4c3)O2)cc(OC)c1OC (stereo not drawn)"
  qualifier: "="
  pIC50: 5.49
- compound: "COc1cc(C2CN=C(c3ccc4[nH]c(O)nc4c3)O2)cc(OC)c1OC (stereo not drawn)"
  qualifier: "<"
  pIC50: 4.00
- compound: "COc1cc(C2CN=C(c3cc4ccccc4n3C)O2)cc(OC)c1OC (stereo not drawn)"
  qualifier: "="
  pIC50: 5.82
- compound: "COc1cc(C2CN=C(c3cccc4[nH]ccc34)O2)cc(OC)c1OC (stereo not drawn)"
  qualifier: "="
  pIC50: 7.24
- compound: "COc1cc(C2CN=C(c3cn(C)c4ccccc34)O2)cc(OC)c1OC (stereo not drawn)"
  qualifier: "="
  pIC50: 7.06
- compound: "COc1cc(C2CN=C(c3ccc4c(c3)nc(C)n4C)O2)cc(OC)c1OC (stereo not drawn)"
  qualifier: "="
  pIC50: 5.92
- compound: "COc1cc(C2CN=C(c3ccc4c(ccn4C4CC4)c3)O2)cc(OC)c1OC (stereo not drawn)"
  qualifier: "="
  pIC50: 5.54
- compound: "COc1cc([C@H]2CN=C(c3ccc4c(ccn4C)c3)O2)cc(OC)c1OC"
  qualifier: "="
  pIC50: 8.21
- compound: "COc1cc(C2CN=C(c3ccc4[nH]cnc4c3)O2)cc(OC)c1OC (stereo not drawn)"
  qualifier: "="
  pIC50: 5.15
- compound: "COc1cc(C2CN=C(c3ccc4cc[nH]c4c3)O2)cc(OC)c1OC (stereo not drawn)"
  qualifier: "="
  pIC50: 6.48
- compound: "COc1cc(C2CN=C(c3ccc4c(c3)CCN4C)O2)cc(OC)c1OC (stereo not drawn)"
  qualifier: "="
  pIC50: 6.09
- compound: "COc1cc(C2CN=C(c3ccc4cncn4c3)O2)cc(OC)c1OC (stereo not drawn)"
  qualifier: "="
  pIC50: 4.00
- compound: "COc1cc(C2CN=C(c3ccc4c(ccn4CC(F)(F)F)c3)O2)cc(OC)c1OC (stereo not drawn)"
  qualifier: "="
  pIC50: 5.38
- compound: "COc1cc(C2CN=C(c3cnc4ccccc4c3)O2)cc(OC)c1OC (stereo not drawn)"
  qualifier: "="
  pIC50: 3.57
- compound: "COc1cc(C2CN=C(c3cc4ccccc4[nH]3)O2)cc(OC)c1OC (stereo not drawn)"
  qualifier: "="
  pIC50: 6.46
- compound: "COc1cc(C2CN=C(c3ccc4[nH]ccc4c3)O2)cc(OC)c1OC (stereo not drawn)"
  qualifier: "="
  pIC50: 7.00
- compound: "COc1cc(C2CN=C(c3ccc4cc(C)cn4c3)O2)cc(OC)c1OC (stereo not drawn)"
  qualifier: "="
  pIC50: 6.28
- compound: "COc1cc(C2CN=C(c3cccc4cc[nH]c34)O2)cc(OC)c1OC (stereo not drawn)"
  qualifier: "="
  pIC50: 6.33
- compound: "COc1cc(C2CN=C(c3ccc4c(ccn4S(C)(=O)=O)c3)O2)cc(OC)c1OC (stereo not drawn)"
  qualifier: "="
  pIC50: 5.09
- compound: "COc1cc(C2CN=C(c3ccc4c(ccn4C)c3)O2)cc(OC)c1OC (stereo not drawn)"
  qualifier: "="
  pIC50: 7.85
- compound: "COc1cc2c(c(OC)c1OC)-c1ccc(OC)c(=O)cc1[C@@H](NC(C)=O)CC2 [COLCHICINE]"
  qualifier: "="
  pIC50: 7.34
- compound: "COCn1ccc2cc(C3=NCC(c4cc(OC)c(OC)c(OC)c4)O3)ccc21 (stereo not drawn)"
  qualifier: "="
  pIC50: 6.17
- compound: "CCn1ccc2cc(C3=NCC(c4cc(OC)c(OC)c(OC)c4)O3)ccc21 (stereo not drawn)"
  qualifier: "="
  pIC50: 7.31
- compound: "COc1cc([C@@H]2CN=C(c3ccc4c(ccn4C)c3)O2)cc(OC)c1OC"
  qualifier: "="
  pIC50: 6.34
- compound: "COc1cc(C2CN=C(c3ccc4nccn4c3)O2)cc(OC)c1OC (stereo not drawn)"
  qualifier: "="
  pIC50: 4.80
- compound: "COc1cc(C2CN=C(c3c[nH]c4ccccc34)O2)cc(OC)c1OC (stereo not drawn)"
  qualifier: "="
  pIC50: 7.09
- compound: "CC(=O)O[C@H]1C(=O)[C@@]2(C)[C@H]([C@H](OC(=O)c3ccccc3)[C@]3(O)C[C@H](OC(=O)[C@H](O)[C@@H](NC(=O)c4ccccc4)c4ccccc4)C(C)=C1C3(C)C)[C@]1(OC(C)=O)CO[C@@H]1C[C@@H]2O [PACLITAXEL]"
  qualifier: "<"
  pIC50: 8.00
- compound: "CC[C@]1(O)C[C@@H]2CN(CCc3c([nH]c4ccccc34)[C@@](C(=O)OC)(c3cc4c(cc3OC)N(C)[C@H]3[C@@](O)(C(=O)OC)[C@H](OC(C)=O)[C@]5(CC)C=CCN6CC[C@]43[C@@H]65)C2)C1 [VINBLASTINE]"
  qualifier: "="
  pIC50: 8.47

Taken from ChEMBL document CHEMBL1135048.
